Listed next: entries and their corresponding growth inhibition.
assay: NCI Yeast Anticancer Drug Screen. Data for the mec2-1 strain (AID 157); conditions: S. cerevisiae mec2-1 strain, at 50.0 µM, stronger effect = higher value
Compounds without any hit were thinned out: in the full panel of roughly 79,000, 15% have a hit.
Record the value in %, omitting the unit from your answer.

Req: Please look up its growth inhibition: `CC(C)OP(=S)(OC(C)C)SSSP(=S)(OC(C)C)OC(C)C`
Resp: 3.75

Req: Do the same for `O=C(OCc1nc2ccccn2c1[N+](=O)[O-])N(CCCl)CCCl` please
Resp: -21.5

Req: One more compound: `Oc1ccc(Nc2c3ccc(Cl)cc3nc3ccc(-c4ccccc4)cc23)cc1CN(CCCl)CCCl`
Resp: 98.7

Req: Further, for `CC1=C[C@H]2[C@@]3(O)[C@H](C)C[C@]4(OC(=O)C(C)C)[C@H]([C@@H]3C=C(CO)C[C@]2(O)C1=O)C4(C)C` ?
Resp: 14.3

Req: Try the compound O=C(O)/C=C\c1c[nH]c2ccccc12 (tested in a mixture with another compound)
Resp: -7.35
